Biological target: T1, CLDN6 endogenously expressed by human cancer cell lines (ARK2, OVCA429) (human, UniProt P56747 1-220)
T1 construct: Untagged endogenous protein; also called Endogenous CLDN6+
T1 sequence: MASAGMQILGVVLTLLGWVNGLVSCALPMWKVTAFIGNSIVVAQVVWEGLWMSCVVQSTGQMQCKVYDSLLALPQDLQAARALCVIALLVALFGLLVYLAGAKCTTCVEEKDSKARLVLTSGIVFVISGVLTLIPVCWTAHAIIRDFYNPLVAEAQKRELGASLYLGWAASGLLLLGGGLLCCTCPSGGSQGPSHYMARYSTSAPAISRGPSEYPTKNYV
Assay: FACS, 1.5 µg Ab, ARK2 cells
Assign FACS fluorescence to each entry below.

For the binder AB3-7 (antibody, V domains shown, also called Humanized AB 3-7) VH: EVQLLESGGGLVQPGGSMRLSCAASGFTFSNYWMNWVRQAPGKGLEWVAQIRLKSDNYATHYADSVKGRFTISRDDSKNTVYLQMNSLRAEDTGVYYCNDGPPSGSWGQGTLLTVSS VL: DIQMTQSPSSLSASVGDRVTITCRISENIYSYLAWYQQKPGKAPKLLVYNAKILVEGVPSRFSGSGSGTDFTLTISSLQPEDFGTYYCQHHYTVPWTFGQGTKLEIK , what FACS fluorescence is on record?
90400

For the binder AB1-5 (antibody, V domains shown, also called Humanized AB 1-5) VH: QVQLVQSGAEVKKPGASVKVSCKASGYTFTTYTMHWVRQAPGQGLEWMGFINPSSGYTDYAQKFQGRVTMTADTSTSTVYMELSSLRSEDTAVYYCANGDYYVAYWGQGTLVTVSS VL: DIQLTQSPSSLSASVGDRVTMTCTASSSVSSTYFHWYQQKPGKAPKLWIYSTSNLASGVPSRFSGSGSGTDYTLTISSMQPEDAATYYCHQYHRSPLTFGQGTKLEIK , what FACS fluorescence is on record?
22400

For the binder AB1-7 (antibody, V domains shown, Humanized; also called Humanized AB 1-7) VH: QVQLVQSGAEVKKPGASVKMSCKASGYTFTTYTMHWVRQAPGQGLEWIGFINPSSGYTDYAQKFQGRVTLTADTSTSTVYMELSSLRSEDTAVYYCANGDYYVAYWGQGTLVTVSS VL: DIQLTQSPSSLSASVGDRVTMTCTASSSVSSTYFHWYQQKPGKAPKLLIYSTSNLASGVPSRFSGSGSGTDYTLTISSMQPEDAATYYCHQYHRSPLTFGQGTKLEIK , what FACS fluorescence is on record?
11200

For the binder AB4-7 (antibody, V domains shown, also called Humanized AB 4-7) VH: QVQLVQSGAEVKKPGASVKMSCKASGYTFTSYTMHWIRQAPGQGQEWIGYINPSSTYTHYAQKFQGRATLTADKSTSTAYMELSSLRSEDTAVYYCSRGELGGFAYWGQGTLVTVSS VL: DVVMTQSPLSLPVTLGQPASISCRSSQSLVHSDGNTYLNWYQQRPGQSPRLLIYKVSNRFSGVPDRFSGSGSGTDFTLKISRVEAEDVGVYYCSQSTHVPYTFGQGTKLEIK , what FACS fluorescence is on record?
7560

For the binder AB4-4 (antibody, V domains shown, also called Humanized AB 4-4) VH: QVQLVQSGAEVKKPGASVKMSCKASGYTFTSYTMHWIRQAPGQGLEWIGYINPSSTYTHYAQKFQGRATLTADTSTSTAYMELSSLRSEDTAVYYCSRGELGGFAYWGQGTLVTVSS VL: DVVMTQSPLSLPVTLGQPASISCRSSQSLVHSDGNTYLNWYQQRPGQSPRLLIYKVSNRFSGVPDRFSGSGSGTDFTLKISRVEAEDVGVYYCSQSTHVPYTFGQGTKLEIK , what FACS fluorescence is on record?
1400

meta.source: patent US20250333501A1
